Ref: BigSolDB 2.1

runParameters: in ethanol, 323.15 K
observationType: solubility (mole fraction)

compoundString: COC(=O)CC[C@H](N)C(=O)O
readoutValue: 0.000383

---

runParameters: in ethanol, 308.15 K
observationType: solubility (mole fraction)

compoundString: COC(=O)CC[C@H](N)C(=O)O
readoutValue: 0.000272

---

runParameters: in methanol, 293.15 K

compoundString: COC(=O)CC[C@H](N)C(=O)O
solubility (mole fraction): 0.0013

---

runParameters: in water, 323.15 K
observationType: solubility (mole fraction)

compoundString: COC(=O)CC[C@H](N)C(=O)O
readoutValue: 0.0608

---

runParameters: in isopropanol, 308.15 K

compoundString: COC(=O)CC[C@H](N)C(=O)O
solubility (mole fraction): 0.000196

---

runParameters: in acetone, 288.15 K

compoundString: COC(=O)CC[C@H](N)C(=O)O
solubility (mole fraction): 9.7e-05

---

runParameters: in n-propanol, 298.15 K

compoundString: COC(=O)CC[C@H](N)C(=O)O
solubility (mole fraction): 0.000116

---

runParameters: in n-propanol, 323.15 K
observationType: solubility (mole fraction)

compoundString: COC(=O)CC[C@H](N)C(=O)O
observationType: solubility (mole fraction)
readoutValue: 0.000336

---

runParameters: in water, 308.15 K
observationType: solubility (mole fraction)

compoundString: COC(=O)CC[C@H](N)C(=O)O
observationType: solubility (mole fraction)
readoutValue: 0.0489

---

runParameters: in n-propanol, 288.15 K
observationType: solubility (mole fraction)

compoundString: COC(=O)CC[C@H](N)C(=O)O
readoutValue: 4.22e-05

---

runParameters: in ethanol, 318.15 K

compoundString: COC(=O)CC[C@H](N)C(=O)O
solubility (mole fraction): 0.000348

---

runParameters: in methanol, 283.15 K

compoundString: COC(=O)CC[C@H](N)C(=O)O
solubility (mole fraction): 0.00115

---

runParameters: in acetone, 323.15 K

compoundString: COC(=O)CC[C@H](N)C(=O)O
solubility (mole fraction): 0.000572

---

runParameters: in ethanol, 298.15 K

compoundString: COC(=O)CC[C@H](N)C(=O)O
solubility (mole fraction): 0.000212

---

runParameters: in water, 318.15 K
observationType: solubility (mole fraction)

compoundString: COC(=O)CC[C@H](N)C(=O)O
observationType: solubility (mole fraction)
readoutValue: 0.0565

---

runParameters: in methanol, 323.15 K

compoundString: COC(=O)CC[C@H](N)C(=O)O
solubility (mole fraction): 0.00179

---

runParameters: in acetone, 283.15 K

compoundString: COC(=O)CC[C@H](N)C(=O)O
solubility (mole fraction): 5.18e-05

---

runParameters: in n-propanol, 308.15 K

compoundString: COC(=O)CC[C@H](N)C(=O)O
solubility (mole fraction): 0.000208

---

runParameters: in isopropanol, 298.15 K

compoundString: COC(=O)CC[C@H](N)C(=O)O
solubility (mole fraction): 0.000144

---

runParameters: in isopropanol, 288.15 K
observationType: solubility (mole fraction)

compoundString: COC(=O)CC[C@H](N)C(=O)O
readoutValue: 0.000104

---

runParameters: in isopropanol, 283.15 K

compoundString: COC(=O)CC[C@H](N)C(=O)O
solubility (mole fraction): 8.34e-05

---

runParameters: in n-propanol, 318.15 K

compoundString: COC(=O)CC[C@H](N)C(=O)O
solubility (mole fraction): 0.000289

---

runParameters: in acetone, 308.15 K

compoundString: COC(=O)CC[C@H](N)C(=O)O
solubility (mole fraction): 0.000377

---

runParameters: in methanol, 308.15 K
observationType: solubility (mole fraction)

compoundString: COC(=O)CC[C@H](N)C(=O)O
observationType: solubility (mole fraction)
readoutValue: 0.00152

---

runParameters: in ethanol, 283.15 K
observationType: solubility (mole fraction)

compoundString: COC(=O)CC[C@H](N)C(=O)O
readoutValue: 0.000116

---

runParameters: in water, 298.15 K

compoundString: COC(=O)CC[C@H](N)C(=O)O
solubility (mole fraction): 0.0426

---

runParameters: in acetone, 313.15 K

compoundString: COC(=O)CC[C@H](N)C(=O)O
solubility (mole fraction): 0.000438

---

runParameters: in water, 288.15 K
observationType: solubility (mole fraction)

compoundString: COC(=O)CC[C@H](N)C(=O)O
observationType: solubility (mole fraction)
readoutValue: 0.036
